The measured values listed here are drawn from ChEMBL document CHEMBL2439971.

// reported Activity per item
- assayComment: Cytotoxicity against human Hs 578T cells at 10 uM after 48 hrs by sulforhodamine B assay relative to control
- Assay type: functional
Please give a number only; it is taken to be in %.

Sure, the documented Activity for CCSCCC(=O)Nc1ccc2c(c1)C(=O)c1cc(NC(=O)CCSCC)ccc1-2 is 109.39

Sure, the documented Activity for CCNCC(=O)Nc1ccc2c(c1)C(=O)c1cc(NC(=O)CNCC)ccc1-2 is 91.4

* * *

- System: NCI-H226
- assayComment: Cytotoxicity against human NCI-H226 cells at 10 uM after 48 hrs by sulforhodamine B assay relative to control
- Type: functional
quantity: Activity (%)
Please give a number only; it is taken to be in %.

Sure, the documented Activity for CCNCC(=O)Nc1ccc2c(c1)C(=O)c1cc(NC(=O)CNCC)ccc1-2 is 99.42

Sure, the documented Activity for CCCNCC(=O)Nc1ccc2c(c1)C(=O)c1cc(NC(=O)CNCCC)ccc1-2 is 104.17

More entries:
Sure, the documented Activity for CCCCNCC(=O)Nc1ccc2c(c1)C(=O)c1cc(NC(=O)CNCCCC)ccc1-2 is 67.92

Sure, the documented Activity for CN1CCN(CC(=O)Nc2ccc3c(c2)C(=O)c2cc(NC(=O)CN4CCN(C)CC4)ccc2-3)CC1 is 106.03

Sure, the documented Activity for CCSCCC(=O)Nc1ccc2c(c1)C(=O)c1cc(NC(=O)CCSCC)ccc1-2 is 104.85

Sure, the documented Activity for O=C(CN1CCCC1)Nc1ccc2c(c1)C(=O)c1cc(NC(=O)CN3CCCC3)ccc1-2 is 104.39

Sure, the documented Activity for O=C(CCN1CCOCC1)Nc1ccc2c(c1)C(=O)c1cc(NC(=O)CCN3CCOCC3)ccc1-2 is 109.63

Sure, the documented Activity for CCNCCC(=O)Nc1ccc2c(c1)C(=O)c1cc(NC(=O)CCNCC)ccc1-2 is 105.54

Sure, the documented Activity for CN1CCN(CCC(=O)Nc2ccc3c(c2)C(=O)c2cc(NC(=O)CCN4CCN(C)CC4)ccc2-3)CC1 is 98.16

Sure, the documented Activity for CCCSCC(=O)Nc1ccc2c(c1)C(=O)c1cc(NC(=O)CSCCC)ccc1-2 is 110.7

* * *

// reported Activity per item
- Tested on: RPMI-8226
- assayComment: Cytotoxicity against human RPMI8226 cells at 10 uM after 48 hrs by sulforhodamine B assay relative to control
- Type: functional
Please give a number only; it is taken to be in %.

Here are 4 compounds together with their reported answers.
Sure, the documented Activity for O=C(CCN1CCOCC1)Nc1ccc2c(c1)C(=O)c1cc(NC(=O)CCN3CCOCC3)ccc1-2 is 99.87

Sure, the documented Activity for CCNCC(=O)Nc1ccc2c(c1)C(=O)c1cc(NC(=O)CNCC)ccc1-2 is 91.09

Sure, the documented Activity for CN1CCN(CC(=O)Nc2ccc3c(c2)C(=O)c2cc(NC(=O)CN4CCN(C)CC4)ccc2-3)CC1 is 106.31

Sure, the documented Activity for CCNCCC(=O)Nc1ccc2c(c1)C(=O)c1cc(NC(=O)CCNCC)ccc1-2 is 104.16

Would you kindly look at the next entry?
Sure, the documented Activity for CCCNCC(=O)Nc1ccc2c(c1)C(=O)c1cc(NC(=O)CNCCC)ccc1-2 is 62.56

* * *

// reported Activity per item
- Tested on: SF-268
- assayComment: Cytotoxicity against human SF268 cells at 10 uM after 48 hrs by sulforhodamine B assay relative to control
- Assay type: functional
Please give a number only; it is taken to be in %.

Here are 2 compounds together with their reported answers.
Sure, the documented Activity for CCCSCC(=O)Nc1ccc2c(c1)C(=O)c1cc(NC(=O)CSCCC)ccc1-2 is 121.78

Sure, the documented Activity for CN1CCN(CC(=O)Nc2ccc3c(c2)C(=O)c2cc(NC(=O)CN4CCN(C)CC4)ccc2-3)CC1 is 115.79

More entries:
Sure, the documented Activity for CCNCCC(=O)Nc1ccc2c(c1)C(=O)c1cc(NC(=O)CCNCC)ccc1-2 is 121.13

Sure, the documented Activity for CCNCC(=O)Nc1ccc2c(c1)C(=O)c1cc(NC(=O)CNCC)ccc1-2 is 78.21

Sure, the documented Activity for CCCCNCC(=O)Nc1ccc2c(c1)C(=O)c1cc(NC(=O)CNCCCC)ccc1-2 is 38.37

* * *

- assayComment: Cytotoxicity against human Hs 578T cells at 10 uM after 48 hrs by sulforhodamine B assay relative to control
- Type: functional
// reported Activity per item
Please give a number only; it is taken to be in %.

Sure, the documented Activity for CCCSCC(=O)Nc1ccc2c(c1)C(=O)c1cc(NC(=O)CSCCC)ccc1-2 is 92.42

Sure, the documented Activity for CCCNCC(=O)Nc1ccc2c(c1)C(=O)c1cc(NC(=O)CNCCC)ccc1-2 is 109.04

Sure, the documented Activity for O=C(CN1CCCC1)Nc1ccc2c(c1)C(=O)c1cc(NC(=O)CN3CCCC3)ccc1-2 is 100.68

Sure, the documented Activity for CCNCCC(=O)Nc1ccc2c(c1)C(=O)c1cc(NC(=O)CCNCC)ccc1-2 is 98.9

Would you kindly look at the next entry?
Sure, the documented Activity for CCCCNCC(=O)Nc1ccc2c(c1)C(=O)c1cc(NC(=O)CNCCCC)ccc1-2 is 37.13

* * *

- assayComment: Cytotoxicity against human EKVX cells at 10 uM after 48 hrs by sulforhodamine B assay relative to control
- Type: functional
quantity: Activity (%)
Please give a number only; it is taken to be in %.

Sure, the documented Activity for O=C(CN1CCCC1)Nc1ccc2c(c1)C(=O)c1cc(NC(=O)CN3CCCC3)ccc1-2 is 100.27

More entries:
Sure, the documented Activity for CN1CCN(CCC(=O)Nc2ccc3c(c2)C(=O)c2cc(NC(=O)CCN4CCN(C)CC4)ccc2-3)CC1 is 111.18

Sure, the documented Activity for CCNCCC(=O)Nc1ccc2c(c1)C(=O)c1cc(NC(=O)CCNCC)ccc1-2 is 102.12

Sure, the documented Activity for CCCCNCC(=O)Nc1ccc2c(c1)C(=O)c1cc(NC(=O)CNCCCC)ccc1-2 is 58.12

* * *

- System: 786-0
- assayComment: Cytotoxicity against human 786-0 cells at 10 uM after 48 hrs by sulforhodamine B assay relative to control
- Format: functional
quantity: Activity
Answer format reminder: number followed by unit.

Here are 5 molecules together with their reported answers.
For the molecule CCSCCC(=O)Nc1ccc2c(c1)C(=O)c1cc(NC(=O)CCSCC)ccc1-2 , the measured Activity on 786-0 was 96.11%

For the molecule CCCNCC(=O)Nc1ccc2c(c1)C(=O)c1cc(NC(=O)CNCCC)ccc1-2 , the measured Activity on 786-0 was 82.05%

For the molecule CCCCNCC(=O)Nc1ccc2c(c1)C(=O)c1cc(NC(=O)CNCCCC)ccc1-2 , the measured Activity on 786-0 was -73.24%

For the molecule O=C(CN1CCCC1)Nc1ccc2c(c1)C(=O)c1cc(NC(=O)CN3CCCC3)ccc1-2 , the measured Activity on 786-0 was 90.88%

For the molecule CN1CCN(CC(=O)Nc2ccc3c(c2)C(=O)c2cc(NC(=O)CN4CCN(C)CC4)ccc2-3)CC1 , the measured Activity on 786-0 was 102.26%

More entries:
For the molecule CN1CCN(CCC(=O)Nc2ccc3c(c2)C(=O)c2cc(NC(=O)CCN4CCN(C)CC4)ccc2-3)CC1 , the measured Activity on 786-0 was 100.57%

For the molecule CCNCCC(=O)Nc1ccc2c(c1)C(=O)c1cc(NC(=O)CCNCC)ccc1-2 , the measured Activity on 786-0 was 102.08%

For the molecule CCCSCC(=O)Nc1ccc2c(c1)C(=O)c1cc(NC(=O)CSCCC)ccc1-2 , the measured Activity on 786-0 was 88.03%

For the molecule O=C(CCN1CCOCC1)Nc1ccc2c(c1)C(=O)c1cc(NC(=O)CCN3CCOCC3)ccc1-2 , the measured Activity on 786-0 was 110.24%

For the molecule CCNCC(=O)Nc1ccc2c(c1)C(=O)c1cc(NC(=O)CNCC)ccc1-2 , the measured Activity on 786-0 was 101.23%

* * *

- Test system: MDA-MB-435
- assayComment: Cytotoxicity against human MDA-MB-435 cells at 10 uM after 48 hrs by sulforhodamine B assay relative to control
- Format: functional
// reported Activity per item
Please give a number only; it is taken to be in %.

Here are 8 compounds together with their reported answers.
Sure, the documented Activity for CCCSCC(=O)Nc1ccc2c(c1)C(=O)c1cc(NC(=O)CSCCC)ccc1-2 is 102.08

Sure, the documented Activity for CCCCNCC(=O)Nc1ccc2c(c1)C(=O)c1cc(NC(=O)CNCCCC)ccc1-2 is -58.56

Sure, the documented Activity for CCSCCC(=O)Nc1ccc2c(c1)C(=O)c1cc(NC(=O)CCSCC)ccc1-2 is 112.56

Sure, the documented Activity for CCCNCC(=O)Nc1ccc2c(c1)C(=O)c1cc(NC(=O)CNCCC)ccc1-2 is 74.91

Sure, the documented Activity for CCNCC(=O)Nc1ccc2c(c1)C(=O)c1cc(NC(=O)CNCC)ccc1-2 is 65.72

Sure, the documented Activity for CCNCCC(=O)Nc1ccc2c(c1)C(=O)c1cc(NC(=O)CCNCC)ccc1-2 is 97.63

Sure, the documented Activity for O=C(CN1CCCC1)Nc1ccc2c(c1)C(=O)c1cc(NC(=O)CN3CCCC3)ccc1-2 is 84.99

Sure, the documented Activity for O=C(CCN1CCOCC1)Nc1ccc2c(c1)C(=O)c1cc(NC(=O)CCN3CCOCC3)ccc1-2 is 104.2

Would you kindly look at the next entry?
Sure, the documented Activity for CN1CCN(CC(=O)Nc2ccc3c(c2)C(=O)c2cc(NC(=O)CN4CCN(C)CC4)ccc2-3)CC1 is 95.92
